These data points were gathered from a melting point compilation (Tetko et al.; mined from patent text by program, amines drawn as free bases though some values may be those of a salt).

Each record here notes measured melting point.

The examples below pair each entry with its known result.
>  <compound>
Clc1ccccc1-c1cnn2cnnc2n1

>  <melting point>
162 to 165 °C

$$$$
>  <compound>
COC(=O)c1cc2cc(-c3ccc4ccc(Cl)cc4n3)ccc2o1

>  <melting point>
178 to 181 °C

$$$$
>  <compound>
CC(=O)C(Cc1cc(C(C)(C)C)c(O)c(C(C)(C)C)c1)(Cc1cc(C(C)(C)C)c(O)c(C(C)(C)C)c1)C(=O)OC1CC(C)(C)NC(C)(C)C1

>  <melting point>
177 to 178 °C

$$$$
>  <compound>
CC(C)(C)OC(=O)n1cccc1-c1ccc2c(c1)C(C)(C)C(=O)N2

>  <melting point>
168 to 170 °C

$$$$
>  <compound>
CCOC(=O)COc1cccc2c1CCC(Br)C2=O (stereo not given)

>  <melting point>
74 to 75 °C

$$$$

Look up melting point: "N=C1NCCN1Cc1ccccc1" 165 to 167 °C

Next compound up: "COCCCS(=O)(=O)NC(=O)CCc1ccc(OC(C)C)cc1Oc1ncc(C(F)(F)F)cc1Cl" 114 to 115 °C

Moving on to "O=C(c1cccnc1)N1CCC(c2ccccc2C(F)(F)F)=N1" 95 to 97 °C

Now the same for CC(=O)OC1C(COC(=O)c2ccccc2)OC(n2ccc(=O)[nH]c2=O)C1F (stereo not given) 179 to 180 °C

Now the same for "O=C(NCC1(c2ccccc2)CCCCC1)Nc1cccc(Cl)c1Cl" 214 to 215 °C

What do you get for "CCCCc1ccc(CCc2ccc(-c3ccc(F)cc3F)cc2)cc1" ? 40 °C

Entry to check: "N=C(NCc1cccnc1)NN=Cc1c(Cl)cccc1Cl" 148 to 151 °C

Also, COc1ccccc1N1CCN(CC(C(=O)NC(C)(C)C)c2ccccc2)CC1 (stereo not given) please. 160 to 163 °C

Next compound up: O=C(NC(CO)CO)c1cccc(-c2ccc3c(c2)C(c2cc(Cl)ccc2Cl)CC3)c1 (stereo not given) 166 °C

Can you handle "COc1cc(-n2cccn2)ccc1-n1cc(OC)c(=O)c(-c2ccnn2-c2ccccc2)n1" next? 133 to 135 °C

Param item: "CCOC(=O)c1ccc(NC=Nc2ccc3[nH]cc(CCN4C(=O)c5ccccc5C4=O)c3c2)cc1" 110 °C

Now the same for CCc1noc(C)c1-c1[nH]c2ccccc2c1C(O)CCN(C)C (stereo not given) 166 to 169 °C

Next: "Cc1ccc(-c2cn3cc(C(F)(F)F)ccc3n2)cc1" 187 to 188 °C

# repeat for "CC(C)(C#N)c1cc(CSc2ccc(O)c(Cl)c2)cc(Cn2cncn2)c1" 131 °C
